system: Pseudomonas fluorescens; assay: Antibacterial activity against Pseudomonas fluorescens; type: functional, organism-based
Activity calls are given as the source filed them. The calls are words filed in the database; no cut-off is given here.
PARAMETER_MEASURED: Activity

Below: 4 compounds and their reported Activity.
{"columns": ["COMPOUND", "Activity"],
 "data": [
  ["COC(=O)C(c1cccc2nc3c(C(=O)O)cccc3nc12)C(O)CCCC(C)C (stereo not given) [STREPTOPHENAZINE C]", "inactive"],
  ["CCC(C)CCCC(O)C(C(=O)OC)c1cccc2nc3c(C(=O)OC)cccc3nc12 (stereo not given) [STREPTOPHENAZINE G]", "inactive"],
  ["COC(=O)c1cccc2nc3c(C(C(=O)OC)C(O)CCCCC(C)C)cccc3nc12 (stereo not given) [STREPTOPHENAZINE F]", "inactive"],
  ["COC(=O)c1cccc2nc3c(C(C(=O)OC)C(O)CCCC(C)C)cccc3nc12 (stereo not given) [STREPTOPHENAZINE A]", "inactive"]
]}

Req: Form field: reported Activity of CCCCCCC(O)C(C(=O)OC)c1cccc2nc3c(C(=O)OC)cccc3nc12 (stereo not given) [STREPTOPHENAZINE B]
Resp: inactive

Data provenance is ChEMBL document CHEMBL1150242.
